Where do these numbers come from? They come from the supplement of paper PMC11061612.

System: KYSE-520 (Esophageal Squamous Cell Carcinoma)
Experiment: combination Emax (second highest fraction inhibited in the dose matrix, 72 h); higher = more inhibition; extreme values may be limits of the assay
Kindly state combination Emax for each of the entries shown.
Could you keep your reply to the number by itself?

Form field combination Emax, entry CC1(C)CCC(CN2CCN(c3ccc(C(=O)NS(=O)(=O)c4ccc(NCC5CCOCC5)c([N+](=O)[O-])c4)c(Oc4cnc5[nH]ccc5c4)c3)CC2)=C(c2ccc(Cl)cc2)C1 [Venetoclax] + COc1cc(Nc2ncc3c(n2)-c2ccc(Cl)cc2C(c2c(F)cccc2OC)=NC3)ccc1C(=O)O [Alisertib] (first compound max 1 µM, 7x7, partner max 10 µM) : 0.493

Form field combination Emax, entry COc1cc2c(cc1OCCCCCOc1cc3c(cc1OC)C(=O)N1C=C(C)C[C@H]1C=N3)N=C[C@@H]1CC(C)=CN1C2=O [SG3199] + O=C(c1cc(Cc2n[nH]c(=O)c3ccccc23)ccc1F)N1CCN(C(=O)C2CC2)CC1 [Olaparib] (first compound max 0.001 µM, 7x7, partner max 10 µM) : 0.133

Form field combination Emax, entry CN(CCO)CC[C@H](CSc1ccccc1)Nc1ccc(S(=O)(=O)NC(=O)c2ccc(N3CCC([C@@H](O)c4ccccc4-c4ccc(Cl)cc4)CC3)cc2)cc1S(=O)(=O)C(F)(F)F [AZD4320] + C[C@@H]1COCCN1C2=NC(=NC(=C2)C3(CC3)[S@](=N)(=O)C)C4=C5C=CNC5=NC=C4 [AZD6738] (first compound max 1 µM, 7x7, partner max 10 µM) : 0.672

====

System: CAL-148 (Breast Carcinoma)
Assay: Bliss excess, mean over the matrix (fraction); higher = more synergy
VALUE TYPE: Bliss excess
Could you keep your reply to the number by itself?

Form field Bliss excess, entry Cc1c2c(nn1C)CSCc1cc(n(C)n1)CSc1cc(c3ccccc3c1)OCCCc1c(C(=O)O)n(C)c3c-2c(Cl)ccc13 [AZD5991] + C[C@@H](Nc1cc(F)cc(F)c1)c1cc(C(=O)N(C)C)cc2c(=O)cc(N3CCOCC3)oc12 [AZD8186] (first compound max 1 µM, 7x7, partner max 3 µM) : -0.0338

Form field Bliss excess, entry Cc1c2c(nn1C)CSCc1cc(n(C)n1)CSc1cc(c3ccccc3c1)OCCCc1c(C(=O)O)n(C)c3c-2c(Cl)ccc13 [AZD5991] + C[C@@H]1COCCN1C2=NC(=NC(=C2)C3(CC3)[S@](=N)(=O)C)C4=C5C=CNC5=NC=C4 [AZD6738] (first compound max 1 µM, 7x7, partner max 10 µM) : 0.0584

Form field Bliss excess, entry Cc1cc2ncnn2cc1Nc1ncc2c(n1)n(C1CCOCC1)c(=O)n2C [AZD7648] + C=CCn1c(=O)c2cnc(Nc3ccc(N4CCN(C)CC4)cc3)nc2n1-c1cccc(C(C)(C)O)n1 [AZD1775] (first compound max 10 µM, partner max 1 µM) : 0.0051

Form field Bliss excess, entry CC1(C)CCC(CN2CCN(c3ccc(C(=O)NS(=O)(=O)c4ccc(NCC5CCOCC5)c([N+](=O)[O-])c4)c(Oc4cnc5[nH]ccc5c4)c3)CC2)=C(c2ccc(Cl)cc2)C1 [Venetoclax] + C1CN(CCC1(C(=O)N[C@@H](CCO)C2=CC=C(C=C2)Cl)N)C3=NC=NC4=C3C=CN4 [Capivasertib] (first compound max 1 µM, 7x7, partner max 3 µM) : -0.0444

====

Test system: NB10 (Neuroblastoma)
Assay: combination Emax (second highest fraction inhibited in the dose matrix, 72 h); higher = more inhibition; extreme values may be limits of the assay
VALUE TYPE: combination Emax
Could you keep your reply to the number by itself?

Form field combination Emax, entry CC1(C)CCC(CN2CCN(c3ccc(C(=O)NS(=O)(=O)c4ccc(NCC5CCOCC5)c([N+](=O)[O-])c4)c(Oc4cnc5[nH]ccc5c4)c3)CC2)=C(c2ccc(Cl)cc2)C1 [Venetoclax] + Cn1cnc2c(F)c(Nc3ccc(Br)cc3Cl)c(C(=O)NOCCO)cc21 [Selumetinib] (first compound max 1 µM, 7x7, partner max 3 µM) : 0.381

Form field combination Emax, entry C=CCn1c(=O)c2cnc(Nc3ccc(N4CCN(C)CC4)cc3)nc2n1-c1cccc(C(C)(C)O)n1 [AZD1775] + O=C(c1cc(Cc2n[nH]c(=O)c3ccccc23)ccc1F)N1CCN(C(=O)C2CC2)CC1 [Olaparib] (first compound max 1 µM, partner max 10 µM) : 0.682

Form field combination Emax, entry Cc1nc(Nc2ncc(C(=O)Nc3c(C)cccc3Cl)s2)cc(N2CCN(CCO)CC2)n1 [Dasatinib] + CC(=O)Nc1cccc(-n2c(=O)n(C3CC3)c(=O)c3c(Nc4ccc(I)cc4F)n(C)c(=O)c(C)c32)c1 [Trametinib] (first compound max 2 µM, 7x7, partner max 1 µM) : 0.658

====

Kindly state combination Emax for each of the entries shown.
System: HOS (Osteosarcoma)
Assay: combination Emax (second highest fraction inhibited in the dose matrix, 72 h); higher = more inhibition; extreme values may be limits of the assay
Could you keep your reply to the number by itself?

Form field combination Emax, entry N#Cc1cnc(Nc2cc(NC[C@H]3CNCCO3)c(C(F)(F)F)cn2)cn1 [SRA737] + O=c1[nH]cc(F)c(=O)[nH]1 [5-Fluorouracil] (first compound max 10 µM, 7x7, partner max 20 µM) : 0.435

Form field combination Emax, entry CS(=O)(=O)CCNCc1ccc(-c2ccc3ncnc(Nc4ccc(OCc5cccc(F)c5)c(Cl)c4)c3c2)o1 [Lapatinib] + C[C@@H](Oc1cc(-c2cnn(C3CCNCC3)c2)cnc1N)c1c(Cl)ccc(F)c1Cl [Crizotinib] (first compound max 10 µM, 7x7, partner max 10 µM) : 0.408

Form field combination Emax, entry Cc1c2c(nn1C)CSCc1cc(n(C)n1)CSc1cc(c3ccccc3c1)OCCCc1c(C(=O)O)n(C)c3c-2c(Cl)ccc13 [AZD5991] + CC1(C)CCC(CN2CCN(c3ccc(C(=O)NS(=O)(=O)c4ccc(NCC5CCOCC5)c([N+](=O)[O-])c4)c(Oc4cnc5[nH]ccc5c4)c3)CC2)=C(c2ccc(Cl)cc2)C1 [Venetoclax] (first compound max 1 µM, 7x7, partner max 1 µM) : 0.509

====

Kindly state Bliss excess for each of the entries shown.
System: HO-1-N-1 (Oral Cavity Carcinoma)
Experiment: Bliss excess, mean over the matrix (fraction); higher = more synergy
Could you keep your reply to the number by itself?

Observed Bliss excess on HO-1-N-1 (Oral Cavity Carcinoma), entry CC1(C)CCC(CN2CCN(c3ccc(C(=O)NS(=O)(=O)c4ccc(NCC5CCOCC5)c([N+](=O)[O-])c4)c(Oc4cnc5[nH]ccc5c4)c3)CC2)=C(c2ccc(Cl)cc2)C1 [Venetoclax] + CN(C)CCCOc1ccc(-c2ccc3ncc4c(c3c2)n(C2CCOCC2)c(=O)n4C)cn1 [AZD0156] (first compound max 1 µM, 7x7, partner max 1 µM) , equals 0.0445

Observed Bliss excess on HO-1-N-1 (Oral Cavity Carcinoma), entry CC1(C)CCC(CN2CCN(c3ccc(C(=O)NS(=O)(=O)c4ccc(NCC5CCOCC5)c([N+](=O)[O-])c4)c(Oc4cnc5[nH]ccc5c4)c3)CC2)=C(c2ccc(Cl)cc2)C1 [Venetoclax] + C[C@@H]1COCCN1C2=NC(=NC(=C2)C3(CC3)[S@](=N)(=O)C)C4=C5C=CNC5=NC=C4 [AZD6738] (first compound max 1 µM, 7x7, partner max 10 µM) , equals -0.0248

Observed Bliss excess on HO-1-N-1 (Oral Cavity Carcinoma), entry CN(CCO)CC[C@H](CSc1ccccc1)Nc1ccc(S(=O)(=O)NC(=O)c2ccc(N3CCC([C@@H](O)c4ccccc4-c4ccc(Cl)cc4)CC3)cc2)cc1S(=O)(=O)C(F)(F)F [AZD4320] + C[C@@H]1COCCN1C2=NC(=NC(=C2)C3(CC3)[S@](=N)(=O)C)C4=C5C=CNC5=NC=C4 [AZD6738] (first compound max 1 µM, 7x7, partner max 10 µM) , equals 0.026

Observed Bliss excess on HO-1-N-1 (Oral Cavity Carcinoma), entry Cc1cc2ncnn2cc1Nc1ncc2c(n1)n(C1CCOCC1)c(=O)n2C [AZD7648] + C=CCn1c(=O)c2cnc(Nc3ccc(N4CCN(C)CC4)cc3)nc2n1-c1cccc(C(C)(C)O)n1 [AZD1775] (first compound max 10 µM, partner max 1 µM) , equals 0.0444

Observed Bliss excess on HO-1-N-1 (Oral Cavity Carcinoma), entry C[C@@H]1COCCN1c1cc(C2([S@](C)(=N)=O)CC2)nc(-c2ccnc3[nH]ccc23)n1 [AZD6738] + Nc1ccn([C@@H]2O[C@H](CO)[C@@H](O)C2(F)F)c(=O)n1 [Gemcitabine] (first compound max 10 µM, 7x7, partner max 0.3 µM) , equals 0.0528

Observed Bliss excess on HO-1-N-1 (Oral Cavity Carcinoma), entry CS(=O)(=O)CCNCc1ccc(-c2ccc3ncnc(Nc4ccc(OCc5cccc(F)c5)c(Cl)c4)c3c2)o1 [Lapatinib] + C[C@@H](Oc1cc(-c2cnn(C3CCNCC3)c2)cnc1N)c1c(Cl)ccc(F)c1Cl [Crizotinib] (first compound max 10 µM, 7x7, partner max 10 µM) , equals -0.0493

Observed Bliss excess on HO-1-N-1 (Oral Cavity Carcinoma), entry C[C@@H](c1ccc2nccn2c1)n1nnc2ncc(-c3cnn(C)c3)nc21 [Savolitinib] + CC1(C)CCC(CN2CCN(c3ccc(C(=O)NS(=O)(=O)c4ccc(NCC5CCOCC5)c([N+](=O)[O-])c4)c(Oc4cnc5[nH]ccc5c4)c3)CC2)=C(c2ccc(Cl)cc2)C1 [Venetoclax] (first compound max 1 µM, 7x7, partner max 1 µM) , equals -0.0105

Observed Bliss excess on HO-1-N-1 (Oral Cavity Carcinoma), entry C[C@@H](Nc1cc(F)cc(F)c1)c1cc(C(=O)N(C)C)cc2c(=O)cc(N3CCOCC3)oc12 [AZD8186] + CC(=O)c1c(C)c2cnc(Nc3ccc(N4CCNCC4)cn3)nc2n(C2CCCC2)c1=O [Palbociclib] (first compound max 10 µM, 7x7, partner max 10 µM) , equals 0.0805
